- test name: Aqueous solubility of the compound
- Assay type: physicochemical
- conditions: buffer
quantity measured: solubility (µg/mL)
Please respond with the number in µg/mL and leave the unit unwritten.

> print(dat)
                              line.notation  quantity.measured  value.observed
1  O=C(NCc1cccnc1OCC(F)(F)F)c1cncc(-c2ccc(Cl)cc2)c1         solubility             3.1

Field request: solubility | item: Cc1cc(C)cc(NC(=O)c2cncc(-c3ccc(C#N)cc3)c2)c1 1.4

* * *

Each item that follows carries a reported pIC50.
- tested on: Sodium channel protein type 10 subunit alpha (Homo sapiens, UniProt Q9Y5Y9)
- Sequence (Q9Y5Y9 whole entry): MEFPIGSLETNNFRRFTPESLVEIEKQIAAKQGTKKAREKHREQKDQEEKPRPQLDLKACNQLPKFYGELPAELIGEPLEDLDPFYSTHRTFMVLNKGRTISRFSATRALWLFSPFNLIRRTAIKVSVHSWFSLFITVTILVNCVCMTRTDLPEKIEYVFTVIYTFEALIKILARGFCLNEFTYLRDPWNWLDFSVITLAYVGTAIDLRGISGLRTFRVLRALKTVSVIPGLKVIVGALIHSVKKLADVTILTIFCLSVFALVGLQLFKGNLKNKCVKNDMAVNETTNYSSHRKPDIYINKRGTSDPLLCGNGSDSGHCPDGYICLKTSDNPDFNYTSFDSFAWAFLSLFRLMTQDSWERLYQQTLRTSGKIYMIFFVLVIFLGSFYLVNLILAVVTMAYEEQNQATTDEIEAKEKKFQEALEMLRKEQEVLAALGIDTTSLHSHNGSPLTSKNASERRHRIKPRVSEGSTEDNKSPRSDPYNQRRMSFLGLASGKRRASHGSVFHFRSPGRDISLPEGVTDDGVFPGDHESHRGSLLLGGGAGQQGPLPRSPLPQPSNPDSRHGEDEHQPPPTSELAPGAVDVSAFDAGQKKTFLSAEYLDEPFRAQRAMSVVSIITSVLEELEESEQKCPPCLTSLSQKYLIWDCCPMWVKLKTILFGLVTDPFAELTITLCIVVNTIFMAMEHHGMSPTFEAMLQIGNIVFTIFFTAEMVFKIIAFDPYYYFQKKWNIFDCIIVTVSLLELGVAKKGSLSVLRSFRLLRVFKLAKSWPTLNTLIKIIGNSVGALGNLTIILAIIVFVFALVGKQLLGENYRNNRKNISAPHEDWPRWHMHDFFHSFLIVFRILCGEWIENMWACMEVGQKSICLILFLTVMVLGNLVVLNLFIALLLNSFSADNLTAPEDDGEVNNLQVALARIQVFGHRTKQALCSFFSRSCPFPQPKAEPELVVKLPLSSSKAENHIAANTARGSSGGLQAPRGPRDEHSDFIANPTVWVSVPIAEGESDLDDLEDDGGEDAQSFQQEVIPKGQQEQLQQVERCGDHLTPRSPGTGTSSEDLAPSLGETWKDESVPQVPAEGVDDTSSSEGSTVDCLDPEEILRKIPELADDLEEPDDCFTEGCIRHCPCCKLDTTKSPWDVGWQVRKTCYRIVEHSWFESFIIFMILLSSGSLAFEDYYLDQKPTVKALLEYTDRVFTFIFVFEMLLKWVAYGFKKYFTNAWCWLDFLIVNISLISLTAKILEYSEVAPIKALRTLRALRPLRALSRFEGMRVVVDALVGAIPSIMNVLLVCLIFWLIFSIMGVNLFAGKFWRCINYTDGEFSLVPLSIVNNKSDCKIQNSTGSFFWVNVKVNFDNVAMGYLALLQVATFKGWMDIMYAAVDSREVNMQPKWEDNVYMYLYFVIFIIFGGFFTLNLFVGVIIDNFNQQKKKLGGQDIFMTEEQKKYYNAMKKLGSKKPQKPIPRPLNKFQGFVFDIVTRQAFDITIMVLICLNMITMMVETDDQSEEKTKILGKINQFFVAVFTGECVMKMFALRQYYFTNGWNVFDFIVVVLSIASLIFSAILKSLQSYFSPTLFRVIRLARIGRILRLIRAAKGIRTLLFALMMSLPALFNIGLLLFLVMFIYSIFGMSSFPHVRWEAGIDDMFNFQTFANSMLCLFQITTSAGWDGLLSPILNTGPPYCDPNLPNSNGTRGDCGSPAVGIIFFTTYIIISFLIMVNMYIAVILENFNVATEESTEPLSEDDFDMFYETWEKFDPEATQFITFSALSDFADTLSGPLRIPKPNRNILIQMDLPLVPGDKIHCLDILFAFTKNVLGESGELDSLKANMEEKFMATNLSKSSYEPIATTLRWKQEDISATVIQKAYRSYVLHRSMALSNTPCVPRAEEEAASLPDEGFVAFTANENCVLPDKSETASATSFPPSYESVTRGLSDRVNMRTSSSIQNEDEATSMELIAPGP
- test name: Inhibition of human NaV1.8 by electrophysiology
In simple prose, pIC50 is minus the logarithm base ten of a concentration in moles per litre.

Worked set:
> print(dat)
                              line.notation  quantity.measured  value.observed
1  Cc1cc(C)cc(NC(=O)c2cnc(-c3ccc(OC(F)(F)F)cc3)o2)c1              pIC50            6.55
2  O=C(NCc1cccnc1OCC(F)(F)F)c1cncc(-c2ccc(Cl)cc2)c1              pIC50            8.52
3   Cc1ccccc1CNC(=O)c1cncc(-c2ccc(Cl)cc2)c1              pIC50            8.70
4  O=C(NCc1ccccc1N1CCCCC1)c1cncc(-c2ccc(Cl)cc2)c1              pIC50            8.10
5  O=C(NCc1ccccc1Cl)c1cncc(-c2ccc(Cl)cc2)c1              pIC50            8.40
6  Cc1cc(C)cc(NC(=O)c2coc(-c3ccc(OC(F)(F)F)cc3)n2)c1              pIC50            6.74
7  Cc1cc(C)cc(NC(=O)c2cncc(-c3ccc(F)cc3)c2)c1              pIC50            7.00
8  Cc1cc(C)cc(NC(=O)c2ccc(-c3ccc(OC(F)(F)F)cc3)o2)c1              pIC50            8.70
9  CCOc1ncccc1CNC(=O)c1cncc(-c2ccc(Cl)cc2)c1              pIC50            8.15

Proceeding to the next molecule to report its pIC50.
What value of measured pIC50 is listed for Cc1cc(C)cc(NC(=O)c2nc(-c3ccc(OC(F)(F)F)cc3)no2)c1 ? 6.33

Origin of the recorded values: ChEMBL document CHEMBL1268885
